# Tgt: CYP17 (human testicular microsome) (Homo sapiens, UniProt P05093)
# Construct: using microsomal fraction from human testis (Celsis Cat #S00110) as the enzyme source; tissue Celsis S00110; host or cells: human testis microsomal fraction
# Sequence (P05093 whole entry): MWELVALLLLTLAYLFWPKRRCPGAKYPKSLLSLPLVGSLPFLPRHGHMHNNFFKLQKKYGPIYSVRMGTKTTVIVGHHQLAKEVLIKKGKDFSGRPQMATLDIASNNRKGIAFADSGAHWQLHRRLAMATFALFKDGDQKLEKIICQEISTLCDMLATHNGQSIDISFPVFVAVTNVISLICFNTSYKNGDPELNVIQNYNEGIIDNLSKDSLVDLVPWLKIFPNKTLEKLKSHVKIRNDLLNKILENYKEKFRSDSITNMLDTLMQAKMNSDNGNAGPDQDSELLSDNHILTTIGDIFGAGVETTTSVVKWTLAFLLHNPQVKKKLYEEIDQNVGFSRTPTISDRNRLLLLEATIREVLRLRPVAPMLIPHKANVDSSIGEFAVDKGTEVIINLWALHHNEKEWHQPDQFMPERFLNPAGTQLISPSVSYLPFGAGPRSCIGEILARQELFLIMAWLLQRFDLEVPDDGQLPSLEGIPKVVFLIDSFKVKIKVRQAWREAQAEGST
# Experiment: CYP17 enzymatic assay (% inhibition at 1 nM) (Biological Example 12)
# Format: biochemical
# Assay context: compound at 1 nM, read-out: Biological Example No. 12: CYP17 enzymatic assay % inhibition at 1 nM
Measurement kind: inhibition at 0.001 µM

**Q:** What inhibition at 0.001 µM appears in the records for this compound with CYP17 (human testicular microsome) (Homo sapiens, UniProt P05093)? CC1C(=O)CC[C@@]2(C)C1CC[C@@H]1[C@@H]2CC[C@]2(C)C(c3cccnc3)=CC[C@@H]12 (stereo partly drawn)
**A:** 10 to 50%

**Q:** What inhibition at 0.001 µM appears in the records for this compound with CYP17 (human testicular microsome) (Homo sapiens, UniProt P05093)? C[C@H]1C2CCC3C(CC[C@]4(C)C(c5cncc(C(F)F)c5)=CCC34)[C@@]2(C)CC[C@@H]1O (stereo partly drawn)
**A:** 10 to 50%

**Q:** What inhibition at 0.001 µM appears in the records for this compound with CYP17 (human testicular microsome) (Homo sapiens, UniProt P05093)? CC1CC2C(CC[C@]3(C)C(c4cccnc4)=CCC23)[C@@]2(C)CCNC(=O)C=C12 (stereo partly drawn)
**A:** > 50%

**Q:** What inhibition at 0.001 µM appears in the records for this compound with CYP17 (human testicular microsome) (Homo sapiens, UniProt P05093)? CCC1CC2C3=CC=C(c4cccnc4)[C@@]3(C)CCC2[C@@]2(C)CCC(=O)C=C12 (stereo partly drawn)
**A:** 10 to 50%

**Q:** What inhibition at 0.001 µM appears in the records for this compound with CYP17 (human testicular microsome) (Homo sapiens, UniProt P05093)? C[C@]12CC[C@H]3[C@@H](CC=C4C[C@@H](O)CC[C@@]43C)C1=CC=C2c1cncc(F)c1
**A:** > 50%

**Q:** What inhibition at 0.001 µM appears in the records for this compound with CYP17 (human testicular microsome) (Homo sapiens, UniProt P05093)? CCNC(=O)N[C@@H]1CC[C@@]2(C)C(=CCC3C2CC[C@]2(C)C(c4cncc(F)c4)=CCC32)C1 (stereo partly drawn)
**A:** 10 to 50%

---

# Experiment: Human liver microsome stability assay (Biological Example 8b)
# Assay context: liver microsomes, pH 7.4
For each of the compounds below, state its half-life at 1 μM.

**Q:** What half-life at 1 μM value was documented for this compound, C[C@]12CCC3C(CCC4=CC(=O)CC[C@@]43C)C1=CC=C2c1cnccn1 (some centres unmarked) ?
**A:** 1 to 50 min

**Q:** What half-life at 1 μM value was documented for this compound, C[C@]12CC[C@H](O)CC1=CC[C@@H]1[C@@H]2CC[C@]2(C)C(c3cccnc3)=CC[C@@H]12 [C, reference compound] ?
**A:** 1 to 50 min

**Q:** What half-life at 1 μM value was documented for this compound, C[C@]12CC[C@H]3[C@@H](CC[C@H]4C[C@@H](O)CC[C@@]43C)C1=CC=C2n1ccnc1 ?
**A:** > 50 min

**Q:** What half-life at 1 μM value was documented for this compound, CC1CC2C(CC[C@]3(C)C(c4cccnc4)=CCC23)[C@@]2(C)CCC(=NO)C=C12 (some centres unmarked) ?
**A:** 1 to 50 min

**Q:** What half-life at 1 μM value was documented for this compound, C[C@]12CC[C@H]3[C@@H](CC=C4C[C@@H](O)CC[C@@]43C)C1=CC=C2c1cncc(F)c1 ?
**A:** 1 to 50 min

Every entry's value here was drawn from patent US20130252930A1.
